Cited source for all entries: patent US20180244777A1

Target: T1, human heterodimeric single-chain CD3εγ extracellular domain (human, UniProt P07766 23-126; P09693 23-116)
T1 construct: extracellular domain; Produced in-house; also called scCD3γε; human CD3ge
T1 sequence (P07766 23-126, chain 1 of 2): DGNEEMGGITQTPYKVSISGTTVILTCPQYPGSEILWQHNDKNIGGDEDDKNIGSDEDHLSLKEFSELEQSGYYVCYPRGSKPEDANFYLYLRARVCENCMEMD
T1 sequence (P09693 23-116, chain 2 of 2): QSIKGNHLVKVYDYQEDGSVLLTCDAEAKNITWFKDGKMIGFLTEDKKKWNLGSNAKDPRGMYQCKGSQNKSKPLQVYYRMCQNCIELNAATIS
Assay: SPR, rabbit IgG captured, human single-chain CD3εγ ECD injected
Some binders, each annotated with its measured pKd.
pKd here: minus log base 10 of the concentration, concentration in moles per litre.

clone-09 (antibody, V domains shown, Recombinant rabbit IgG) VH: QSLEESGGRLVTPGTPLTLTCTVSGFPLNRYAMLWVRQAPGKGLEWIGLITRADKKYYASWAKGRFTISKTSTTVDLEITGPTTEDTATYFCARRHYNTDGYPVAIGDLWGPGTLVTVSS VL: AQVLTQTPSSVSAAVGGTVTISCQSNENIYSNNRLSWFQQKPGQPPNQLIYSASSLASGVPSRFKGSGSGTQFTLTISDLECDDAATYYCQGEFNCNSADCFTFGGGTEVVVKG    8.94

Recorded pKd (binder clone-10 (antibody, V domains shown, Recombinant rabbit IgG) VH: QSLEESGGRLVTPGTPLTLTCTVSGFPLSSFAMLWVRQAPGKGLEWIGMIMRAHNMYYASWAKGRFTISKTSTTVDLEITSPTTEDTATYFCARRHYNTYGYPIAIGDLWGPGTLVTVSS VL: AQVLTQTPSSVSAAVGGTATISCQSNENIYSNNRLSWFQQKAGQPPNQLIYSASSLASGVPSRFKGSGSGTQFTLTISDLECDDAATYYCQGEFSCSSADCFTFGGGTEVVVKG ): 8.78
